Tested on: CXA TALE SHD (Xanthomonas (engineered)?)
measured_metric: binding signal (normalized ELISA)

TTGACAATCCT (double strand) [CAA target]: 0.38
TTGACGATCCT (double strand) [CGA target]: 0.01
TTGACTATCCT (double strand) [CTA target]: 0.12
TTGACCATCCT (double strand) [CCA target]: 1.29

FYI, the data here is from patent US20130196373.
